Tested on: CP191
protocol-description: qHTS profiling for inhibitors of Plasmodium falciparum proliferation (AID 504749); note: nearly all actives have a fitted effect of over 60% in size
condition-notes: P. falciparum in erythrocytes, SYBR Green DNA, 72 h; series mostly up to 28.7 µM
Inconclusive results are not listed. Activity calls are given as the source filed them. Calls come from the whole dose curve; as a rule, active = well fitted inhibition curve with a large enough effect; inconclusive = small, poorly fitted or top-dose-only effect; inactive = flat fitted curve, though single readings scatter.
value-type: outcome

>>> recorded_measurement("CCCOC(=O)c1ccccc1O")
"inactive"
>>> recorded_measurement("Cc1ncc[nH]1")
"inactive"
>>> recorded_measurement("CO")
"inactive"

----------
Test system: CP250
protocol-description: qHTS profiling for inhibitors of Plasmodium falciparum proliferation (AID 504749); note: nearly all actives have a fitted effect of over 60% in size
condition-notes: P. falciparum in erythrocytes, SYBR Green DNA, 72 h; series mostly up to 28.7 µM
Inconclusive results are not listed. Calls of active or inactive are those of the source. Calls come from the whole dose curve; as a rule, active = well fitted inhibition curve with a large enough effect; inconclusive = small, poorly fitted or top-dose-only effect; inactive = flat fitted curve, though single readings scatter.
Labels: 1 for active, -1 for inactive

>>> class_name("CC1(O)CCC(C(C)(C)O)CC1 (centres undefined)")
-1
>>> class_name("CC(=O)Nc1ccc(OC(C)=O)cc1")
-1
>>> class_name("CC(C)CCCC(C)NC(C)C (centres undefined)")
-1
>>> class_name("CSc1nc2cc(Oc3cccc(Cl)c3Cl)c(Cl)cc2[nH]1")
1

----------
protocol-description: Cell Viability - HUV-EC-C (AID 542);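 note: cells exposed to compound for 40 hours; nearly all actives have a fitted effect of over 35% in size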
condition-notes: HUV-EC-C endothelial cell viability, qHTS; series mostly up to 92.2 µM
Excerpt: NIH Chemical Genomics Center [NCGC] NIH Molecular Libraries Screening Centers Network [MLSCN] National Institutes of Environmental Health Sciences [NIEHS] National Toxicology Program [NTP] We have developed a 1536-well cell-based assay for quantitative high throughput screening (qHTS) against a number of cell lines to determine in vitro cytotoxicity of small molecules. […] 8. Detection; Luminescence; Viewlux plate reader […]
Results filed as inconclusive are left out. The source made the active and inactive calls. The call rests on the fitted dose curve; in most records, active means well fitted cell-killing curve with a large enough effect; inconclusive means small, poorly fitted or top-dose-only effect, or effect the other way; inactive means flat fitted curve, though single readings scatter.
Classes used: label 1 = active, label 0 = inactive

>>> class_name("C[C@H]1O[C@@H](O[C@H]2[C@@H](O)C[C@H](O[C@H]3[C@@H](O)C[C@H](O[C@H]4CC[C@@]5(C)[C@H](CC[C@@H]6[C@@H]5C[C@@H](O)[C@]5(C)[C@@H](C7=CC(=O)OC7)CC[C@]65O)C4)O[C@@H]3C)O[C@@H]2C)C[C@H](O)[C@@H]1O")
"label 1"
>>> class_name("CC(C)(C)CC(C)(C)c1ccc(OCCO)cc1")
"label 0"
>>> class_name("C/C=C/C=C/C(=O)O")
"label 0"

----------
System: CP335
protocol-description: qHTS profiling for inhibitors of Plasmodium falciparum proliferation (AID 504749); note: nearly all actives have a fitted effect of over 60% in size
condition-notes: P. falciparum in erythrocytes, SYBR Green DNA, 72 h; series mostly up to 28.7 µM
Inconclusive results are not listed. The source made the active and inactive calls. The call rests on the fitted dose curve; in most records, active means well fitted inhibition curve with a large enough effect; inconclusive means small, poorly fitted or top-dose-only effect; inactive means flat fitted curve, though single readings scatter.
Classes used: yes (1) (active), no (0) (inactive)

>>> class_name("CC(=O)Nc1ccc(OC(=O)c2ccccc2O)cc1")
"no (0)"
>>> class_name("O=C(O)[C@H]1CN(C/C=C/P(=O)(O)O)CCN1")
"no (0)"
>>> class_name("CC(=O)[O][Al][O]C(C)=O")
"no (0)"
>>> class_name("CCCCCCCCCCCCCC(=O)OCC(COP(=O)([O-])OCC[N+](C)(C)C)OC(=O)CCCCCCCCCCCCC (stereo unspecified)")
"no (0)"
>>> class_name("O=C(O)[C@H]1C(=CCO)O[C@H]2CC(=O)N12")
"no (0)"
>>> class_name("Cc1cccc(Nc2ncccc2C(=O)O)c1C")
"no (0)"
>>> class_name("CCCCC")
"no (0)"
>>> class_name("CCCCCCCCCC(=O)NO")
"no (0)"
>>> class_name("NC(=O)C1c2ccccc2CCc2ccccc21")
"no (0)"
>>> class_name("CN=C1C=CC(=C(c2ccc(N(C)C)cc2)c2ccc(N(C)C)cc2)C=C1")
"yes (1)"
>>> class_name("O=C(O)COc1ccc(CCNS(=O)(=O)c2ccccc2)s1")
"no (0)"
>>> class_name("Cc1cccc(C)c1NC(=O)C1CCCCN1C (stereo unspecified)")
"no (0)"
>>> class_name("CC(C)(C)CC(C)(C)c1cc(Cc2cc(C(C)(C)CC(C)(C)C)cc(-n3nc4ccccc4n3)c2O)c(O)c(-n2nc3ccccc3n2)c1")
"no (0)"
>>> class_name("CCCCCCCCCCCCCCCCCC(=O)OC[C@@H](O)[C@H]1OC[C@H](O)[C@H]1O")
"no (0)"
>>> class_name("Nc1ncnc2c1ncn2CCOCP(=O)(O)O")
"no (0)"
>>> class_name("Cc1cccc(C)c1NC(=O)NC1=CCCN1C")
"no (0)"
